# run_description: Solubility in aqueous phosphoric acid solution (Test Example 1)
# Assay type: physicochemical
# test_parameters: phosphoric acid (4 g) and water (100 g), liquid temperature 20° C.; amount dissolved (complete dissolution where stated)
readout_label: Solubility in aq. phosphoric acid solution (104 g)

Some solved cases for reference:
1) COC(CCCNC(=O)C(=Cc1cccnc1)NC(=O)C=Cc1ccc(N=[N+]=[N-])cc1)OC	0.2 g (complete
2) [N-]=[N+]=Nc1ccc(C=C(NC(=O)c2ccc(CN3CCOCC3)cc2)C(=O)NCCCC=O)cc1	5 g (complete
3) COC(CCCNC(=O)C(=Cc1ccc(N=[N+]=[N-])cc1)NC(=O)c1ccc(CN2CCOCC2)cc1)OC	5 g (complete

Now let's try a different one.
Reported Solubility in aq. phosphoric acid solution (104 g) for C=CCN(CC=C)Cc1ccc(C(=O)NC(=Cc2ccc(N=[N+]=[N-])cc2)C(=O)NCCCC(OC)OC)cc1 was 5 g (complete
